target: Prostaglandin G/H synthase 2 (Rattus norvegicus)
test_protocol: Percent reversal of FCA-induced arthritis in rats at 10 mg/kg
Assay type: functional, organism-based
Set-up: dose 10 mg/kg
readout: Reversal activity (%)

Here's what some known entries look like.
[
  {
    "molecular_string": "COc1ccc2c(-c3ccc(S(C)(=O)=O)cc3)c(-c3ccc(C)cc3)nn2n1",
    "Reversal activity [%]": 15
  },
  {
    "molecular_string": "NS(=O)(=O)c1ccc(-c2c(-c3ccc(F)cc3)nn3ncccc23)cc1",
    "Reversal activity [%]": 0
  },
  {
    "molecular_string": "CCc1ccc2c(-c3ccc(S(C)(=O)=O)cc3)c(-c3ccc(F)cc3)nn2n1",
    "Reversal activity [%]": 40
  }
]

[1] Cc1ccc(-c2nn3ncccc3c2-c2ccc(S(C)(=O)=O)cc2)cc1
[2] Cc1ccc2c(-c3ccc(S(C)(=O)=O)cc3)c(-c3ccccc3)nn2n1
**Q:** When the recorded Reversal activity values are compared, which is smaller: that of 1 or that of 2 ? Answer by quoting the chosen item's label.
**A:** 2

---

test_protocol: Clearance after iv administration of 2 mg/kg to rat
Format: ADME, organism-based
Design: dose 2 mg/kg, route intravenous
experimental_parameters: in vivo
readout: clearance (mL/min/kg)
Field format: number, assumed mL/min/kg, no unit text.

**Q:** I have this compound here, CCOc1ccc(-c2nn3ncccc3c2-c2ccc(S(C)(=O)=O)cc2)cc1 [GW-406381] , and I need its recorded clearance.
**A:** 9

---

test_protocol: Half life after iv administration of 2 mg/kg to rat
Format: ADME, organism-based
Set-up: dose 2 mg/kg, route intravenous
experimental_parameters: in vivo
readout: half-life (h)
Report only the number, with the unit h understood.

**Q:** Reported half-life for CCOc1ccc(-c2nn3ncccc3c2-c2ccc(S(C)(=O)=O)cc2)cc1 [GW-406381] : what is it?
**A:** 4.1

---

test_protocol: Distribution after iv administration of 2 mg/kg to rat
Type: ADME, organism-based
Set-up: dose 2 mg/kg, route intravenous
experimental_parameters: in vivo, read-out: Distribution
readout: Vd (L/kg)
Field format: number, assumed L/kg, no unit text.

**Q:** Given the molecule `CCOc1ccc(-c2nn3ncccc3c2-c2ccc(S(C)(=O)=O)cc2)cc1` , what is its reported Vd?
**A:** 3

---

target: Prostaglandin G/H synthase 2 (Homo sapiens, UniProt P35354)
Sequence (P35354 whole entry): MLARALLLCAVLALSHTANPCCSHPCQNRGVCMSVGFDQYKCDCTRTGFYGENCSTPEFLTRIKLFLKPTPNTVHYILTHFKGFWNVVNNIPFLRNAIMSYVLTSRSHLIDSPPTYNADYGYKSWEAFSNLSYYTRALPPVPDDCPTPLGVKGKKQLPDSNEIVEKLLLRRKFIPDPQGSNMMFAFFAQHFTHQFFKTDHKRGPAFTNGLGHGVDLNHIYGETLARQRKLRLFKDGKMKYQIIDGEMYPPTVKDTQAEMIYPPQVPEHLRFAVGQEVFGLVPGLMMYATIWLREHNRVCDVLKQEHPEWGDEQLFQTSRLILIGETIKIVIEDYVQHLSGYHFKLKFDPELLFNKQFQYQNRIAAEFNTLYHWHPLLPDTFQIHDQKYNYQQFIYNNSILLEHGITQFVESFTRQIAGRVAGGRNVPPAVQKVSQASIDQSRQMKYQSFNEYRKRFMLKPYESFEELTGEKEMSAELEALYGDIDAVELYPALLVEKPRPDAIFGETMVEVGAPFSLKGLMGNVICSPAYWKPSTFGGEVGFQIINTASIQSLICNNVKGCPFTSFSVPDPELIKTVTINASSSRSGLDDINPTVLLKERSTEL
pIC50: −log10 of the molar value.
readout: pIC50

[
  {
    "molecular_string": "CC(C)Oc1ccc2c(-c3ccc(S(C)(=O)=O)cc3)c(-c3ccc(F)cc3)nn2n1",
    "pIC50": 7.24
  },
  {
    "molecular_string": "COc1ccc2c(-c3ccc(S(C)(=O)=O)cc3)c(-c3ccc(F)cc3)nn2n1",
    "pIC50": 7.29
  }
]

[1] Cc1ccc2c(-c3ccc(S(C)(=O)=O)cc3)c(-c3ccc(F)cc3)nn2n1
[2] CCOc1ccc(-c2nn3nc(S(C)(=O)=O)ccc3c2-c2ccc(S(N)(=O)=O)cc2)cc1
**Q:** Response body: label of entry with the larger pIC50; valid values 1 , 2 . Respond using the label that marks the chosen record.
**A:** 1
(1: 7.62, 2: 6.58)

[A] CS(=O)(=O)c1ccc(-c2c(-c3ccc(F)cc3)nn3ncccc23)cc1
[B] Cc1ccc(-c2nn3ncccc3c2-c2ccc(S(C)(=O)=O)cc2)cc1
**Q:** For this pair, A and B , which shows a numerically higher pIC50? Mark your selection by writing its label.
**A:** B
(B: 7.77, A: 7.41)

---

test_protocol: Oral bioavailability after oral administration of 5 mg/kg to rat
Type: ADME, organism-based
experimental_parameters: in vivo, read-out: Bioavailabiility
readout: bioavailability (%)
Reply with just the number (in %).

**Q:** Entry under review: `CCOc1ccc(-c2nn3ncccc3c2-c2ccc(S(C)(=O)=O)cc2)cc1` . Reported bioavailability?
**A:** 80

---

target: Prostaglandin G/H synthase 2 (Homo sapiens)
pIC50: −log10 of the molar value.
readout: pIC50

[
  {
    "molecular_string": "COc1ccc2c(-c3ccc(S(C)(=O)=O)cc3)c(-c3ccc(C)cc3)nn2n1",
    "pIC50": 7.30
  }
]

[P] CCOc1ccc(-c2nn3nc(SC)ccc3c2-c2ccc(S(N)(=O)=O)cc2)cc1
[Q] CCc1ccc2c(-c3ccc(S(C)(=O)=O)cc3)c(-c3ccc(F)cc3)nn2n1
**Q:** Hi there, can you help? I need to know whether P or Q has lower measured pIC50. Answer by stating the label of the chosen item.
**A:** Q
